From: patent US20070299029A1

Tested on: T6/GFAP-lacZ cells
Test: tetrazolium-based proliferation assay of T6/GFAP-lacZ cells
Assay type: cell-based, rat
Conditions: 48 hours, low serum (0.5% FBS) medium, read-out: IC50 of proliferation inhibition
RECORDED ENDPOINT: pIC50
Numbers only, as −log10 of the molar value.

Incoming: Query: pIC50; subject: O=C(O[C@@H]1Cc2c(O)cc(O)cc2O[C@@H]1c1cc(O)c(O)c(O)c1)c1cc(O)c(O)c(O)c1 [EGCG, epigallocatechin gallate]
Outgoing: 4.51
